From: patent US9409915B2

- target: canine TRPM8 (Canis lupus familiaris, UniProt Q1A7N1)
- Sequence (Q1A7N1 1-1104): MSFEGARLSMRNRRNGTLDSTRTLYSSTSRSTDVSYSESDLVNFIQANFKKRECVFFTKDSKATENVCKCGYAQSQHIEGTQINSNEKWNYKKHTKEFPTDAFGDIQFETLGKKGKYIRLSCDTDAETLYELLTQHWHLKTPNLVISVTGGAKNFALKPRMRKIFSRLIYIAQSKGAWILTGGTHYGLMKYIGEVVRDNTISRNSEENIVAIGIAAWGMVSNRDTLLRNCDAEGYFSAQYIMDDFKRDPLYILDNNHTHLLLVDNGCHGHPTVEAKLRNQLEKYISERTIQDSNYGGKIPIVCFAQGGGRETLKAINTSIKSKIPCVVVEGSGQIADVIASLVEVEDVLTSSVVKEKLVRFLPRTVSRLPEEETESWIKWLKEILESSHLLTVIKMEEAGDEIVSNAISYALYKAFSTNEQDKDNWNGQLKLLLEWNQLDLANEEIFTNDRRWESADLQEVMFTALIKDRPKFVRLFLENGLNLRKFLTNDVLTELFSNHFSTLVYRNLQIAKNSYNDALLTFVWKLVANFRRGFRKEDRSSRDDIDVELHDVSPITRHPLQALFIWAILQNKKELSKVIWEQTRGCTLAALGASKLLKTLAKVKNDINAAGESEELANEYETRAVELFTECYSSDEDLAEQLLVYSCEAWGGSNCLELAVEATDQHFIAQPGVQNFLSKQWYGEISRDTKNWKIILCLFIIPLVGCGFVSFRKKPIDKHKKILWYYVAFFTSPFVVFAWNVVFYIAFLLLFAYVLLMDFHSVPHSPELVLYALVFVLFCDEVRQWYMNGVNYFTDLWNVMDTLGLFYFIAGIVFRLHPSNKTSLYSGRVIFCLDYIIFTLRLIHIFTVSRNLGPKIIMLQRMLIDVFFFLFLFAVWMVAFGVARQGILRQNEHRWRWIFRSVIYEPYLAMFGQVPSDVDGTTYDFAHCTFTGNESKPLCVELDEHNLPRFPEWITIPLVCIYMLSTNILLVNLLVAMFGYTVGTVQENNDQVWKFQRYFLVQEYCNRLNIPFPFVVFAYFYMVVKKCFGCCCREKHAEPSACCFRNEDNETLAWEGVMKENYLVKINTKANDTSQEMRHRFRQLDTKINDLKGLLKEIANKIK
- method_description: In vitro canine TRPM8 functional assay (Ca2+-sensitive fluorescent dye, icilin activation)
- Assay type: cell-based
- condition: HEK293 cells stably expressing canine TRPM8; icilin-induced Ca2+ response; eight-point concentration-response
- Description: The functional activity of representative compounds of the formula (I) of the present invention was quantified by measuring changes in intracellular calcium concentration using a Ca^2+-sensitive fluorescent dye. The changes in fluorescent signal were monitored by a fluorescence plate reader, either a FLIPR™ (Molecular Devices) or FDSS (Hamamatsu). […]
Where a name gives a salt, the structure may show the parent alone.
class 1 if IC50 is below 0.02 µM. class 0 if not; exact matches included in class 0.

Reference set, count: 6
>>> discrete_label("Cn1nc(C(C)(C)C)c(Cl)c1-c1nc2nc(-c3ccccc3C(F)(F)F)ccc2[nH]1 [Compound 32, hydrochloride]")
"class 1"
>>> discrete_label("CC(C)Oc1nc(-c2ccccc2F)cc2nc(-c3c(Cl)c(C(C)(C)C)nn3C)[nH]c12 [Compound 92, sodium salt]")
"class 1"
>>> discrete_label("Cn1nc(C(C)(C)C)c(C#N)c1-c1nc2cc(-c3ccccc3Cl)nc(OCCO)c2[nH]1")
"class 1"
>>> discrete_label("Cn1nc(C(C)(C)C)c(Cl)c1-c1nc2nc(-c3ccccc3F)ccc2[nH]1 [Compound 33, hydrochloride]")
"class 0"
>>> discrete_label("Cn1nc(C(C)(C)C)c(Cl)c1-c1nc2cc(-c3ccccc3Cl)nc(OCC(=O)O)c2[nH]1")
"class 0"
>>> discrete_label("CN1CCN(CCOc2nc(-c3ccccc3Cl)cc3nc(-c4c(Cl)c(C(C)(C)C)nn4C)[nH]c23)CC1")
"class 0"

Please let me know if Cn1nc(C(C)(C)C)c(C#N)c1-c1nc2cc(-c3ccccc3C(F)(F)F)nc(Cl)c2[nH]1 [Compound 75, Hydrochloride] shows IC50 below 0.02 µM.
class 0

Try the compound Cn1nc(C(C)(C)C)c(Cl)c1-c1nc2cc(-c3ccccc3C(F)(F)F)ncc2[nH]1 [Compound 46, hydrochloride]
class 1

Try the compound CC(C)(C)c1cc(-c2nc3nc(-c4ccccc4OC(F)(F)F)ccc3[nH]2)on1
class 0

Try the compound Cn1nc2c(c1-c1nc3c(Cl)nc(-c4ccccc4C(F)(F)F)cc3[nH]1)CCC21CCCCC1 [Compound 72, hydrochloride]
class 0

Try the compound CC(C)Oc1nc(-c2ccccc2C(F)(F)F)cc2nc(-c3c(Cl)c(C(C)(C)C)nn3C)[nH]c12
class 1
